tested on: HOP-18 NSCLC; assay: NCI tumour cell line growth inhibition, 48 h
TGI values for the molecules below.

Reported TGI (HOP-18 NSCLC) for entry CCc1ccc(N=Cc2cc(OC)c(OC)c(OC)c2)cc1 is > 100 µM

---

test system: EKVX NSCLC; assay: NCI tumour cell line growth inhibition, 48 h; in the data active = GI50 below about 0.43 µM; inactive = the rest
Choose one outcome from this list and give only that: label 1 = active, label 0 = inactive

A selection of reference data follows.
CCN1CCN(Cc2ccc(-c3cc4c(N[C@H](C)c5ccccc5)ncnc4[nH]3)cc2)CC1; label 1
FC(F)(F)Oc1cccc(-c2cnc3ccc(-c4ccncc4)nn23)c1; label 0

Recorded test outcome, item CCCCON(OC(=O)c1ccccc1)C(=O)c1ccccc1 label 0

Recorded test outcome, item O=C1c2ccccc2-c2c1c1ccccc1c(=O)n2CCCCNCCCn1c2c(c3ccccc3c1=O)C(=O)c1ccccc1-2 label 0

Recorded test outcome, item COc1ccc(OC)c(/C=N/NC(=O)Cc2csc3nc(-c4ccc(Br)cc4)cn23)c1 label 0

---

TGI values for the compounds below.
system: HCT-15 colon; assay: NCI tumour cell line growth inhibition, 48 h
Where a name gives a salt, the structure may show the parent alone. Where a SMILES comes first, the peptide text is derived from it. The star is where a group is joined. Tfa = O=C(C(F)(F)F)*

NC(=O)c1nnc2ccc(F)cc2c1N; > 100 µM
Cc1ccc(S(=O)(=O)c2c(N)c3nc4ccccc4n3c3nc4ccccc4nc23)cc1; > 100 µM
O=C(O)CC(NC(=O)C(F)(F)F)C(=O)NC(Cc1ccc(O)cc1)C(=O)O (stereo not drawn) (Tfa-Asp-Tyr-OH; configuration not given here); > 50 µM

Form: compound = COc1ccc(C2CC(=O)c3c(O)cc(O)cc3O2)cc1O (stereo unspecified) ; TGI = > 100 µM

Form: compound = O=C1c2ccccc2-c2c1c1ccccc1c(=O)n2CCCCNCCCn1c2c(c3ccccc3c1=O)C(=O)c1ccccc1-2 ; TGI = 0.624 µM

Form: compound = CCOc1ccc2nc(-c3ccc(O)cc3)sc2c1 ; TGI = > 100 µM

---

GI50 values for the compounds below.
tested on: IGROV1 ovarian; assay: NCI tumour cell line growth inhibition, 48 h

COc1ccc2[nH]c(=O)c3c4ccccc4cn3c2c1; 575 nM
OC(c1cccc(-n2ccc(C(F)(F)F)n2)c1)c1cnccc1NC1CCCCCC1 (configuration not stated); 1530 nM
COc1ccc(-c2cc(-c3cc(Cl)ccc3Cl)nc3n[nH]c(N)c23)cc1; 28300 nM
Fc1ccc2[nH]cc(-c3nc(-c4c[nH]c5ncccc45)cs3)c2c1; 4460 nM
Cn1cc(-c2ccc3c(Nc4cccc(NC(=O)Nc5cccc(F)c5)c4)ncnc3c2)cn1; 1300 nM
O=C(NC1CCN(Cc2ccccc2)CC1)c1cc(-c2ccncc2)nc2ccc(Cl)cc12; 18500 nM

Next, consider the following compound.
Reported GI50 (IGROV1 ovarian) for entry Clc1ccc(CSC(Cn2ccnc2)c2ccc(Cl)cc2Cl)cc1 (configuration not stated) is 1740 nM

---

TGI values for the compounds below.
tested on: HT29 colon; assay: NCI tumour cell line growth inhibition, 48 h
Structures can show the parent of a compound that is named as a salt. Where a SMILES comes first, the peptide text is derived from it. The star is where a group is joined. Tfa = O=C(C(F)(F)F)*

Form: compound = O=C(O)CC(NC(=O)C(F)(F)F)C(=O)NC(Cc1ccc(O)cc1)C(=O)O (stereo not drawn) (Tfa-Asp-Tyr-OH; configuration not given here) ; TGI = > 50 µM

Form: compound = CCSCC1CC(O)(c2ccccc2)C(c2ccccc2)C(c2ccc(Cl)cc2)O1 (centres undefined) ; TGI = 3.17 µM

Form: compound = CC(=O)OC1=c2ccccc2=C(O)C2C1C=NN2C(C)=O (centres undefined) ; TGI = > 100 µM
